system: IICR (IP3 induced calcium release) in CHO cells; assay: Assay of IICR (IP3 induced calcium release)-inhibiting action; format: cell-based, Chinese hamster; conditions: Cricetulus griseus, CHO, test compound 100 μmol; CHO cells, 10 μM ATP; read-out: IICR level (percentage of inhibition)
Listed here: items and their measured inhibition at 100 µM.

[
  {
    "Compound": "Cc1ccc(C(=O)CCN(CCO)C(C)C)o1 [Example 146]",
    "inhibition at 100 µM": "90%"
  },
  {
    "Compound": "CC(C)N(CC(=O)c1ccc(F)cc1)Cc1ccccc1 [Example 196]",
    "inhibition at 100 µM": "30%"
  },
  {
    "Compound": "NCCSSCCN(CCC(=O)c1ccc(Cl)s1)CCC(=O)c1ccc(Cl)s1 [Example 366]",
    "inhibition at 100 µM": "70%"
  },
  {
    "Compound": "CC(C)(C)N(CCO)CCC(=O)c1ccccn1 [Example 244]",
    "inhibition at 100 µM": "0%"
  },
  {
    "Compound": "CCc1nccnc1C(=O)CCN(Cc1ccccc1)C(C)C [Example 186]",
    "inhibition at 100 µM": "100%"
  }
]

Input: Look up inhibition at 100 µM of Cc1nc(C)c(C(=O)CCNCCNCCO)s1 [Example 220] and report it.
Output: 40%

Input: Look up inhibition at 100 µM of CCN(CCC(=O)c1ccco1)Cc1ccccc1 [Example 142] and report it.
Output: 80%

Input: Look up inhibition at 100 µM of CC(CNC12CC3CC(CC(C3)C1)C2)C(=O)c1ccc(F)cc1 (stereo not shown) [Example 191] and report it.
Output: 0%

Input: Look up inhibition at 100 µM of CN(CCC(=O)c1cccs1)Cc1ccccc1 [Example 125] and report it.
Output: 70%

Input: Look up inhibition at 100 µM of Cc1ccc(C(=O)CCNCCO)s1 [Example 306] and report it.
Output: 30%

====

system: IICR (IP3 induced calcium release) in CHO cells; experiment: Assay of IICR (IP3 induced calcium release)-inhibiting action; format: cell-based, Chinese hamster; conditions: Cricetulus griseus, CHO, test compound 100 μmol; CHO cells, 10 μM ATP; read-out: IICR level (percentage of inhibition)
Parameter: inhibition at 100 µM (%)
Express the result in % but write the number alone.

Before answering, review these 3 worked examples.
[
  {
    "Compound": "CN(CCC(=O)c1cnccn1)Cc1ccccc1 [Example 215]",
    "inhibition at 100 µM, %": 50
  },
  {
    "Compound": "O=C(CCNCCN(CCO)CCC(=O)c1cnccn1)c1cnccn1 [Example 273]",
    "inhibition at 100 µM, %": 20
  },
  {
    "Compound": "O=C(CCN(CCO)CCO)c1ccncc1 [Example 249]",
    "inhibition at 100 µM, %": 80
  }
]

Input: Look up inhibition at 100 µM of COC(=O)C(CSSCC(NCCC(=O)c1ccc(I)s1)C(=O)OC)NCCC(=O)c1ccc(I)s1 (stereo not shown) [Example 406] and report it.
Output: 62

Input: Look up inhibition at 100 µM of Cc1ccc(C(=O)CCN(CCO)CCO)o1 [Example 145] and report it.
Output: 30

Input: Look up inhibition at 100 µM of CC(C)(C)N(CCC(=O)c1ccsc1)Cc1ccccc1 [Example 238] and report it.
Output: 0

Input: Look up inhibition at 100 µM of CN(CCO)CCC(=O)c1nccs1 [Example 291] and report it.
Output: 100

Input: Look up inhibition at 100 µM of CC(C)N(CCC(=O)c1cccc2ccccc12)Cc1ccccc1 [Example 82] and report it.
Output: 100

Input: Look up inhibition at 100 µM of CCN(CO)CCC(=O)c1ccc(Br)s1 [Example 362] and report it.
Output: 70

Input: Look up inhibition at 100 µM of COC(=O)C(CSC)NCCC(=O)c1ccc(Br)s1 (stereo not shown) [Example 409] and report it.
Output: 81

====

system: IICR (IP3 induced calcium release) in CHO cells; test: Assay of IICR (IP3 induced calcium release)-inhibiting action; assay type: cell-based, Chinese hamster; conditions: Cricetulus griseus, CHO, test compound 10 μmol; CHO cells, 10 μM ATP; read-out: IICR level (percentage of inhibition)
Parameter: inhibition at 10 µM (%)
Express the result in % but write the number alone.

Before answering, review these 6 worked examples.
[
  {
    "Smiles Data": "CCc1nccnc1C(=O)CCN(CCO)CCO",
    "inhibition at 10 µM / %": 20
  },
  {
    "Smiles Data": "CC(C)(C)N(CCC(=O)c1ccc(Br)cc1)Cc1ccccc1",
    "inhibition at 10 µM / %": 50
  },
  {
    "Smiles Data": "CCN(CCC(=O)c1ccc(F)cc1)Cc1ccccc1",
    "inhibition at 10 µM / %": 20
  },
  {
    "Smiles Data": "CC(C)N(CCO)CCC(=O)c1ccco1",
    "inhibition at 10 µM / %": 0
  },
  {
    "Smiles Data": "O=C(CCNC12CC3CC(CC(C3)C1)C2)c1ccccc1",
    "inhibition at 10 µM / %": 0
  },
  {
    "Smiles Data": "CC(C)(C)N(CCO)CCC(=O)c1ccco1",
    "inhibition at 10 µM / %": 20
  }
]

Next item in the queue.
Input: Look up inhibition at 10 µM of `CN(CCO)CCC(=O)c1ccc(Br)s1` and report it.
Output: 0

====

target: TGase (Cavia porcellus); type: biochemical; conditions: test compound 30 μmol; level with DMSO control designated as 100
Binarize TG level at 2; below is rule met, at or above is rule not met.

Reference set, count: 5
[
  {
    "Compound": "O=C(CCNCCSSCCNCCC(=O)c1cccs1)c1cccs1 [Example 369]",
    "Cat": "rule met"
  },
  {
    "Compound": "O=C(CCNCCSSCCNCCC(=O)c1ccc2ccccc2c1)c1ccc2ccccc2c1 [Example 370]",
    "Cat": "rule met"
  },
  {
    "Compound": "O=C(CCNCCSSCCNCCC(=O)c1ccc(Br)s1)c1ccc(Br)s1 [Example 340]",
    "Cat": "rule not met"
  },
  {
    "Compound": "O=C(CCNCCSSCCNCCC(=O)c1ccco1)c1ccco1 [Example 372]",
    "Cat": "rule met"
  },
  {
    "Compound": "O=C(CCNCCSSCCNCCC(=O)c1ccsc1)c1ccsc1 [Example 380]",
    "Cat": "rule not met"
  }
]

Turning to the following compound.
Input: In plain terms, does O=C(CCNCCCCNCCC(=O)c1ccc(Br)s1)c1ccc(Br)s1 [Example 356] come in under 2 for TG level?
Output: rule not met

====

test system: IICR (IP3 induced calcium release) in CHO cells; experiment: Assay of IICR (IP3 induced calcium release)-inhibiting action; type: cell-based, Chinese hamster; conditions: Cricetulus griseus, CHO, test compound 30 μmol; CHO cells, 10 μM ATP; read-out: IICR level (percentage of inhibition)
Parameter threshold = 50%. Response is 1 when inhibition at 30 µM meets or exceeds it, else 0.

Reference set, count: 3
[
  {
    "Compound": "CC(CNC12CC3CC(CC(C3)C1)C2)C(=O)c1ccc(F)cc1 (stereo not shown)",
    "Cat": 0
  },
  {
    "Compound": "CCN(CCC(=O)c1cnccn1)Cc1ccccc1",
    "Cat": 1
  },
  {
    "Compound": "CN(CCC(=O)c1cccs1)Cc1ccccc1",
    "Cat": 0
  }
]

Input: Check the entry `CC(C)N(CCC(=O)n1nnc2ccccc21)Cc1ccccc1` : does inhibition at 30 µM equal or exceed 50%?
Output: 1

Input: Check the entry `CC(C)N(CCC(=O)c1ccc2c(Cl)cccc2c1)Cc1ccccc1` : does inhibition at 30 µM equal or exceed 50%?
Output: 1

Input: Check the entry `CN(CCO)CCC(=O)c1ccco1` : does inhibition at 30 µM equal or exceed 50%?
Output: 1

Input: Check the entry `O=C(CCN(CCO)Cc1ccccc1)c1ccc(Br)s1` : does inhibition at 30 µM equal or exceed 50%?
Output: 0

Input: Check the entry `CN(CCO)CCC(=O)c1ccncc1` : does inhibition at 30 µM equal or exceed 50%?
Output: 0

Input: Check the entry `CCCCN(CCC(=O)c1ccc(Br)s1)c1ccccc1` : does inhibition at 30 µM equal or exceed 50%?
Output: 0

====

tested on: IICR (IP3 induced calcium release) in CHO cells; assay: Assay of IICR (IP3 induced calcium release)-inhibiting action; type: cell-based, Chinese hamster; settings: Cricetulus griseus, CHO, test compound 100 μmol; CHO cells, 10 μM ATP; read-out: IICR level (percentage of inhibition)
Parameter threshold = 60%. Response is 1 when inhibition at 100 µM meets or exceeds it, else 0.

[
  {
    "Smiles Data": "CC(C)N(CCO)CCC(=O)c1ccc(F)cc1",
    "Cat": 0
  },
  {
    "Smiles Data": "CC(C)N(CCO)CCC(=O)c1ccccc1",
    "Cat": 1
  },
  {
    "Smiles Data": "CN1CCN(CCC(=O)c2ccc(Br)s2)CC1",
    "Cat": 1
  },
  {
    "Smiles Data": "CCCCN(CCO)CCC(=O)c1ccc(C)o1",
    "Cat": 0
  },
  {
    "Smiles Data": "NCCSSCCN(CCC(=O)c1ccc(Br)cc1)CCC(=O)c1ccc(Br)cc1",
    "Cat": 1
  }
]

Input: Check the entry `CCN(CCC(=O)c1nccs1)Cc1ccccc1` : does inhibition at 100 µM equal or exceed 60%?
Output: 1

Input: Check the entry `CCN(CCC(=O)c1ccc(C)s1)Cc1ccccc1` : does inhibition at 100 µM equal or exceed 60%?
Output: 1
